MEASURED_TARGET: T1, Bud14, P27637
T1 sequence (P27637 247-328, looked up): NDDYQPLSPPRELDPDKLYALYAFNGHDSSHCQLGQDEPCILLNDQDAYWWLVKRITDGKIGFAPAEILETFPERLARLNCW
TEST_DETAILS: SPOT array
DETAILS: median of control spots 956
Exercise: for every item that follows, state its recorded SPOT intensity.

Task item: Reported SPOT intensity for `ITHRLRISIPGITGR` : what is it?
Reply: 8

Task item: Repeat with `TTNRGPPPLPPRANV`
Reply: 1

Task item: Repeat with `TIRRRAPLSLLESHT`
Reply: 13

Task item: Repeat with `DFTLPPPPPPPGLDE`
Reply: 0

Task item: Repeat with `AAHKTKPSIPPKKVE`
Reply: 0
